Where do the numbers come from? From the supplement of paper PMC7600603.

Tested on: DLD1 NRF2-WT
Experiment: drug sensitivity score (DSS) viability (DSS score); higher = more sensitive; extreme values may be limits of the assay
Details: 72 h; CellTiter-Glo viability
Please respond with reported drug sensitivity score for every item in the list.
Please reply with the value in numeric form only.

Value of drug sensitivity score reported for the compound C=CCn1c(=O)c2cnc(Nc3ccc(N4CCN(C)CC4)cc3)nc2n1-c1cccc(C(C)(C)O)n1 is 14.5

Value of drug sensitivity score reported for the compound CC(C)[C@H]1C(=O)N[C@@H](CCCNC(=N)N)C(=O)NCC(=O)N[C@@H](CC(=O)O)C(=O)N[C@H](Cc2ccccc2)C(=O)N1C [Cilengitide] is 0

Value of drug sensitivity score reported for the compound CC(C)C[C@H](NC(=O)[C@H](CCc1ccccc1)NC(=O)CN1CCOCC1)C(=O)N[C@@H](Cc1ccccc1)C(=O)N[C@@H](CC(C)C)C(=O)[C@@]1(C)CO1 is 26.6

Value of drug sensitivity score reported for the compound NS(=O)(=O)NCCNc1nonc1/C(=N/O)Nc1ccc(F)c(Br)c1 is 3.8

* * *

Test system: DLD1 NRF2-WT
Test: drug sensitivity score (DSS) viability (DSS score); higher = more sensitive; extreme values may be limits of the assay
Details: 72 h; CellTiter-Glo viability
QUANTITY_KIND: drug sensitivity score
Please reply with the value in numeric form only.

Value of drug sensitivity score reported for the compound Cc1cnc(NC(=O)Nc2cc(Br)c(C)cc2OC[C@@H]2CNCCO2)cn1 [Rabusertib] is 0.3

Value of drug sensitivity score reported for the compound O=C(NC[C@H](O)CN1CCc2ccccc2C1)c1cc(NC2COC2)ncn1 is 3

Value of drug sensitivity score reported for the compound CC(C)NC[C@@H](C(=O)N1CCN(c2ncnc3c2[C@H](C)C[C@H]3O)CC1)c1ccc(Cl)cc1 [Ipatasertib] is 1.3

Value of drug sensitivity score reported for the compound O=C(/C=C/c1cccnc1)NCCCCC1CCN(C(=O)c2ccccc2)CC1 [Daporinad] is 27.6

Value of drug sensitivity score reported for the compound Nc1nc(Cl)nc2c1ncn2[C@H]1C[C@H](O)[C@@H](CO)O1 [Cladribine] is 10.4

* * *

Please respond with reported drug sensitivity score for every item in the list.
Tested on: DLD1 NRF2-WT
Assay: drug sensitivity score (DSS) viability (DSS score); higher = more sensitive; extreme values may be limits of the assay
Settings: 72 h; CellTiter-Glo viability
Please reply with the value in numeric form only.

Value of drug sensitivity score reported for the molecule CNC(=O)c1ccccc1Nc1cc(Nc2ccc(N3CCOCC3)cc2OC)ncc1C(F)(F)F is 4.3

Value of drug sensitivity score reported for the molecule O=C(CCCCCCC(=O)Nc1ccc([C@H]2O[C@@H](CSc3nc(-c4ccccc4)c(-c4ccccc4)o3)C[C@@H](c3ccc(CO)cc3)O2)cc1)NO is 2.7

Value of drug sensitivity score reported for the molecule Cn1cncc1[C@@](N)(c1ccc(Cl)cc1)c1ccc2c(c1)c(-c1cccc(Cl)c1)cc(=O)n2C is 5.4

Value of drug sensitivity score reported for the molecule Cc1cc(C)c(CNC(=O)c2cc(-c3ccc(CN4CCOCC4)cc3)cc3c2cnn3C2CCCC2)c(=O)[nH]1 is 3.3

Value of drug sensitivity score reported for the molecule CC[C@@H]1C(=O)N(C)c2cnc(Nc3ccc(C(=O)N[C@H]4CC[C@H](N5CCN(CC6CC6)CC5)CC4)cc3OC)nc2N1C(C)C is 20.7

Value of drug sensitivity score reported for the molecule Cn1cc(C2=C(c3cn(C4CCN(Cc5ccccn5)CC4)c4ccccc34)C(=O)NC2=O)c2ccccc21 is 0

Value of drug sensitivity score reported for the molecule Cc1nn(C)c(COc2ccc(N3CCN(S(=O)(=O)N(C)C)CC3)cc2)c1-c1cccc2c(CCCOc3cccc4ccccc34)c(C(=O)O)n(CCN3CCOCC3)c12 is 1.9

Value of drug sensitivity score reported for the molecule CCC(C)(C)C(=O)O[C@H]1C[C@@H](C)C=C2C=C[C@H](C)[C@H](CC[C@@H]3C[C@@H](O)CC(=O)O3)[C@H]21 is 0

Value of drug sensitivity score reported for the molecule CS(=O)(=O)c1ccc(-c2cnc(N)c(C(=O)Nc3ccccc3)n2)cc1 is 0.2

Value of drug sensitivity score reported for the molecule Cn1cc(C[C@@H](N)C(=O)O)c2ccccc21 is 2.3

Value of drug sensitivity score reported for the molecule CC1(C)OCCn2c1nc1c(N3CCOCC3)nc(-c3cnc(N)nc3)nc12 is 10.9

Value of drug sensitivity score reported for the molecule NC(=O)NO [Hydroxyurea] is 1.7

Value of drug sensitivity score reported for the molecule CCCCOc1nc(N)c2c(n1)N(Cc1cccc(CN3CCCC3)c1)CC(=O)N2 is 0

Value of drug sensitivity score reported for the molecule O=c1[nH]c(C2CCCN2)nc2c1oc1ccc(Cl)cc12 (stereo unspecified) is 0.9

Value of drug sensitivity score reported for the molecule N#CCNC(=O)c1ccc(-c2ccnc(Nc3ccc(N4CCOCC4)cc3)n2)cc1 is 4.1

Value of drug sensitivity score reported for the molecule COc1ccc(-c2ccc3ncc4c(c3c2)n(-c2ccc(N3CCNCC3)c(C(F)(F)F)c2)c(=O)n4C)cn1 is 17.5

* * *

Test system: DLD1 NRF2-GOF
Assay: TC50 cytotoxicity; higher = less toxic
Settings: 72 h; CellTox Green cytotoxicity
Please respond with reported TC50 cytotoxicity for every item in the list.

Value of TC50 cytotoxicity reported for the molecule COCCNCc1ccc(-c2cc3nccc(Oc4ccc(NC(=O)C5(C(=O)Nc6ccc(F)cc6)CC5)cc4F)c3s2)nc1 [Sitravatinib] is > 2.5 µM

Value of TC50 cytotoxicity reported for the molecule O=c1ncn2nc(Sc3ccc(F)cc3F)ccc2c1-c1c(Cl)cccc1Cl [VX-745] is > 10 µM

Value of TC50 cytotoxicity reported for the molecule CC(C)Oc1ccc(C(=O)N[C@H](CNC(=O)CN(C)C)Cc2ccc(-c3cn4cccc([C@H](C)O)c4n3)cc2)cc1Cl is > 10 µM

Value of TC50 cytotoxicity reported for the molecule CCCCNc1ncc(C(=O)NCc2ccc(-n3ccnc3)cc2)c(NC2CCC(O)CC2)n1 (configuration not stated) [UNC2881] is > 2.5 µM

Value of TC50 cytotoxicity reported for the molecule CCN(CC)CCCC(C)Nc1c2ccc(Cl)cc2nc2ccc(OC)cc12 (configuration not stated) [Mepacrine] is 7.07 µM

Value of TC50 cytotoxicity reported for the molecule CC(C)C[C@H](NC(=O)[C@H](CCc1ccccc1)NC(=O)CN1CCOCC1)C(=O)N[C@@H](Cc1ccccc1)C(=O)N[C@@H](CC(C)C)C(=O)[C@@]1(C)CO1 [Carfilzomib] is 0.0143 µM

Value of TC50 cytotoxicity reported for the molecule Nc1ncnc2c1nc(Cl)n2[C@@H]1O[C@H](CO)[C@@H](O)[C@H]1O [8-chloro-adenosine] is > 50 µM

* * *

Please respond with reported TC50 cytotoxicity for every item in the list.
System: DLD1 NRF2-GOF
Assay: TC50 cytotoxicity; higher = less toxic
Details: 72 h; CellTox Green cytotoxicity

Value of TC50 cytotoxicity reported for the compound C[C@@H]1CN(Cc2ccc(F)cc2)[C@@H](C)CN1C(=O)c1cc2c(C(=O)C(=O)N(C)C)cn(C)c2cc1Cl [Talmapimod] is > 10 µM

Value of TC50 cytotoxicity reported for the compound NCCNc1ccc(NCCN)c2c1C(=O)c1ccncc1C2=O [Pixantrone] is > 10 µM

Value of TC50 cytotoxicity reported for the compound C=C1C[C@@H]2CC[C@@]34C[C@H]5O[C@H]6[C@@H](O3)[C@H]3O[C@H](CC[C@@H]3O[C@H]6[C@H]5O4)CC(=O)C[C@@H]3[C@@H](OC)[C@@H](C[C@H](O)CN)O[C@H]3C[C@H]3O[C@@H](CC[C@@H]1O2)C[C@@H](C)C3=C [Eribulin] is > 1 µM

Value of TC50 cytotoxicity reported for the compound C[C@@]1(C(=O)Nc2ccc(F)nc2)CCCN1c1nc(Nc2cc(C3CC3)n[nH]2)c2cccn2n1 is 0.319 µM

Value of TC50 cytotoxicity reported for the compound C[C@@H](Oc1cc(-n2cnc3ccc(CN4CCN(C)CC4)cc32)sc1C(N)=O)c1ccccc1C(F)(F)F is > 10 µM

Value of TC50 cytotoxicity reported for the compound Nc1cc(F)ccc1NC(=O)/C=C/c1cnn(C/C=C/c2ccccc2)c1 [RGFP966] is > 10 µM

Value of TC50 cytotoxicity reported for the compound CN1CCN(c2cc(C(=O)Nc3ccc4c(c3)-c3c(c(C(N)=O)nn3-c3ccc(F)cc3)CC4)c(Cl)cn2)CC1 [PHA 408] is > 10 µM

* * *

Please respond with reported drug sensitivity score for every item in the list.
System: DLD1 NRF2-WT
Assay: drug sensitivity score (DSS) cytotoxicity (DSS score); higher = more toxic; extreme values may be limits of the assay
Conditions: 72 h; CellTox Green cytotoxicity
Please reply with the value in numeric form only.

Value of drug sensitivity score reported for the compound CONC(=O)c1ccccc1Nc1cc(Nc2cc(C)nn2C(C)C)ncc1Cl is 0

Value of drug sensitivity score reported for the compound C=C1C[C@@H]2[C@H](CC[C@]3(C)C(=O)CC[C@@H]23)[C@@]2(C)C=CC(=O)C=C12 is 0

Value of drug sensitivity score reported for the compound CC(=O)O[C@]1(C(C)=O)CC[C@H]2[C@@H]3C=C(C)C4=CC(=O)CC[C@]4(C)[C@H]3CC[C@@]21C [Megestrol acetate] is 0

Value of drug sensitivity score reported for the compound Nc1ccn([C@@H]2O[C@H](CO)[C@@H](O)[C@@H]2O)c(=O)n1 is 0

Value of drug sensitivity score reported for the compound Nc1nc2[nH]cnc2c(=S)[nH]1 is 0.2

Value of drug sensitivity score reported for the compound Nc1ccccc1NC(=O)c1ccc(CNc2nccc(-c3cccnc3)n2)cc1 is 1.6

Value of drug sensitivity score reported for the compound COc1cccc(OCCCN)c1-c1cc(Nc2cnc(C#N)cn2)n[nH]1 is 3.8

Value of drug sensitivity score reported for the compound Cc1ccc(NC(=O)c2ccc(CN3CCN(C)CC3)cc2)cc1Nc1nccc(-c2cccnc2)n1 is 0
